Source listed as patent US12398154B2.

Reported pIC50 is given for each of the following compounds.
- measured-on: KRas G12A (Homo sapiens, UniProt P01116, G12A)
- Sequence (P01116 1-169 isoform P01116-2 G12A): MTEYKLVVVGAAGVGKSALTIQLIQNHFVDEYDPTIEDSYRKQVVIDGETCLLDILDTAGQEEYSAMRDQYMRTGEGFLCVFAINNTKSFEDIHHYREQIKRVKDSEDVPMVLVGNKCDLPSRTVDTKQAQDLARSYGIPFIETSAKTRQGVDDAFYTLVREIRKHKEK
- experiment-notes: biochemical
pIC50: −log10 of the molar value.

# compound, value-operator, pIC50
records = [
    ("N#Cc1ccccc1N1CCN(c2nc(OCC34CCCN3CCC4)nc3c(F)c(-c4cccc5cccc(F)c45)ncc23)CC1", "=", 4.86),
    ("Fc1c(-c2cccc3cccc(F)c23)ncc2c(NCc3cnn4c3OCCC4)nc(OCC34CCCN3CCC4)nc12", "=", 4.75),
    ("O=S1(=O)CC[C@H](CNc2nc(OCC34CCCN3CCC4)nc3c(F)c(-c4cccc5cccc(F)c45)ncc23)N1", "=", 4.94),
    ("CC1(O)COCCN(c2nc(OCC34CCCN3CCC4)nc3c(F)c(-c4cccc5cccc(F)c45)ncc23)C1 (centres unmarked)", "=", 5.89),
    ("CCc1cccc2cc3[nH]ncc3c(-c3ncc4c(N5CCC[C@@](C)(O)C5)nc(OC[C@@]56CCCN5C[C@H](F)C6)nc4c3F)c12", "=", 8.10),
    ("Fc1c(-c2cccc3cccc(F)c23)ncc2c(Nc3cnn(-c4ccncc4)c3)nc(OCC34CCCN3CCC4)nc12", "=", 4.18),
    ("C#Cc1c(F)ccc2cc(O)cc(-c3ncc4c(N5CCCC6(CNC(=O)C6)C5)nc(OC[C@@]56CCCN5C[C@H](F)C6)nc4c3F)c12 (some centres unmarked)", "≥", 8.70),
    ("Nc1cc2n(n1)CCN(c1nc(OCC34CCCN3CCC4)nc3c(F)c(-c4cccc5cccc(F)c45)ncc13)C2", "=", 4.86),
    ("OC1CCCN(c2nc(OCC34CCCN3CCC4)nc3c(F)c(-c4cccc5cccc(F)c45)ncc23)CC1 (centres unmarked)", "=", 5.57),
    ("CCc1c(F)ccc2cc(O)cc(-c3ncc4c(N5CCCn6nc(C(=O)N(C)C)cc6C5)nc(OC[C@@]56CCCN5C[C@H](F)C6)nc4c3F)c12", "≥", 8.70),
    ("CCc1cccc2cccc(-c3ncc4c(N5CCCC(c6nc[nH]n6)C5)nc(OCC56CCCN5CCC6)nc4c3F)c12 (centres unmarked)", "=", 5.74),
    ("O=CNC1CCN(c2nc(OCC34CCCN3CCC4)nc3c(F)c(-c4cccc5cccc(F)c45)ncc23)CC1", "=", 5.73),
    ("O=C1NC2(CCN(c3nc(OCC45CCCN4CCC5)nc4c(F)c(-c5cccc6cccc(F)c56)ncc34)CC2)CO1", "=", 5.07),
    ("O=C1NCC2(CCN(c3nc(OCC45CCCN4CCC5)nc4c(F)c(-c5cccc6cccc(F)c56)ncc34)CC2)N1", "=", 5.05),
]

----------
- measured-on: KRas G12C (Homo sapiens, UniProt P01116, G12C)
- Sequence (P01116 1-169 isoform P01116-2 G12C): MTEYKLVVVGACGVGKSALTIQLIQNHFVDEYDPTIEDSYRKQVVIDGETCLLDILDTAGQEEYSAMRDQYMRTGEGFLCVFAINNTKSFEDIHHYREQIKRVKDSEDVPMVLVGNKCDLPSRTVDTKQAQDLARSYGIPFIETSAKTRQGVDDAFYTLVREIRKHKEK
- experiment-notes: biochemical
pIC50: −log10 of the molar value.

# molecule, value-operator, pIC50
data = [
    ("Fc1c(-c2cccc3cccc(F)c23)ncc2c(OCCCc3cccnc3)nc(OCC34CCCN3CCC4)nc12", "=", 4.93),
    ("CN(C)CC1(COc2nc(N3CCCC(C)(O)C3)c3cnc(-c4cccc5cccc(F)c45)c(F)c3n2)CC1 (centres unmarked)", "=", 5.39),
    ("CCc1cccc2cccc(-c3ncc4c(N5CC6CC(O)C(C6)C5)nc(OCC56CCCN5CCC6)nc4c3F)c12 (centres unmarked)", "=", 6.68),
    ("Fc1c(-c2cccc3cccc(F)c23)ncc2c(NCc3nnc4cccnn34)nc(OCC34CCCN3CCC4)nc12", "=", 5.46),
    ("C#Cc1c(F)ccc2cc(O)cc(-c3ncc4c(N5CCCC6(CNC(=O)C6)C5)nc(OC[C@@]56CCCN5C[C@H](F)C6)nc4c3F)c12 (some centres unmarked)", "≥", 8.70),
    ("OCC1CN(c2nc(OCC34CCCN3CCC4)nc3c(F)c(-c4cccc5cccc(F)c45)ncc23)CCCO1 (centres unmarked)", "=", 6.22),
    ("O=C1CC2(CCCN(c3nc(OCC45CCCN4CCC5)nc4c(F)c(-c5cccc6cccc(F)c56)ncc34)C2)C(=O)N1 (centres unmarked)", "=", 5.48),
    ("Fc1c(-c2cccc3cccc(F)c23)ncc2c(NCCc3cnoc3)nc(OCC34CCCN3CCC4)nc12", "=", 5.25),
    ("N#Cc1cccc2cccc(-c3ncc4c(N5CCCC6(C5)NC(=O)NC6=O)nc(OCC56CCCN5CCC6)nc4c3F)c12 (centres unmarked)", "=", 5.44),
    ("Fc1c(-c2cccc3cccc(F)c23)ncc2c(NCCc3c[nH]c4ncccc34)nc(OCC34CCCN3CCC4)nc12", "=", 5.51),
    ("CSc1cccc2cccc(-c3ncc4c(N5CCCC6(CC(=O)N6)C5)nc(OCC56CCCN5CCC6)nc4c3F)c12 (centres unmarked)", "=", 6.87),
    ("Fc1c(-c2cccc3cccc(F)c23)ncc2c(N3CC(n4cncn4)C3)nc(OCC34CCCN3CCC4)nc12", "=", 5.62),
    ("Fc1c(-c2cccc3cccc(F)c23)ncc2c(N3CCCC4(CC4)C3)nc(OCC34CCCN3CCC4)nc12", "=", 5.61),
    ("CCc1cccc2cc3[nH]ncc3c(-c3ncc4c(N5CCC[C@@](C)(O)C5)nc(OC[C@@]56CCCN5C[C@H](F)C6)nc4c3F)c12", "=", 8.05),
]
